- method: clinical
- study.conditions: human, plasma, intravenous, 100 mg/m2, t1/2, Cohorts 1 & 2, 17-AAG 100 mg/m^2; Mean
readout.kind: half-life (h)
Write the value in h as a bare number.

According to the records, this molecule C=CCNC1=C2C[C@@H](C)C[C@H](OC)[C@H](O)[C@@H](C)/C=C(\C)[C@H](OC(N)=O)[C@@H](OC)/C=C\C=C(/C)C(=O)NC(=CC1=O)C2=O [17-AAG, 17-Allylamino-17-demethoxygeldanamycin] displays half-life of 2.49

###

- method: clinical
- study.conditions: human, plasma, intravenous, 100 mg/m2, t1/2, Cohorts 1 & 2, 17-AAG 100 mg/m^2; Median
- Description: PK assessments included the following tests. […] The total number of PK samples collected was approximately 115 mL of whole blood (7-8 tablespoons). If a patient experienced a potentially drug-related SAE, additional PK samples were collected. Blood was drawn from the contralateral arm to the infusion site using an indwelling catheter to avoid multiple needle sticks. […] The blood tube was inverted several times and the tube placed in wet ice immediately pending separation of the plasma. […]
readout.kind: half-life (h)
Write the value in h as a bare number.

According to the records, this molecule C=CCNC1=C2C[C@@H](C)C[C@H](OC)[C@H](O)[C@@H](C)/C=C(\C)[C@H](OC(N)=O)[C@@H](OC)/C=C\C=C(/C)C(=O)NC(=CC1=O)C2=O displays half-life of 2.29
